Assay: FRG1 expression reporter modulators in myotubes – cell-based, C2C12 myotubes, firefly/Renilla luciferase, luminescence, FRG1 inhibition for FSHD, primary screen (AID 1084)
Conditions: FRG1 promoter luciferase, higher = more signal, called active from +8 up or from −8 down
Entries and their measured z-score follow.

compound	z-score
CCCC=C(CCC)[C@@H](NS(=O)(=O)c1cccc2cccnc12)c1ccc(C(=O)OC)cc1	1.76
C=C(COC)C(=O)CC[C@H](OC(=O)c1ccccc1-c1ccccc1C(=O)O)c1ccc(OCCO)cc1	0.552
C=CCC(OC(C)=O)[C@@H]1[C@@H](N(Cc2ccc(-c3cccc(C(F)(F)F)c3)o2)C(=O)c2cccc3ccccc23)c2cc(OCCCO)ccc2N1C(=O)c1ccc(-c2ccccc2)cc1 (some centres undefined)	-0.579
NC(=O)NCC#Cc1ccc2c(c1)[C@]1(C(=O)N2)[C@H](c2ccc(O)cc2)N2[C@H](c3ccccc3)[C@H](c3ccccc3)OC(=O)[C@H]2[C@@H]1C(=O)NC[C@H](O)c1ccccc1	-0.0208
COC(=O)[C@@]1(Cc2ccccc2)[C@H]2c3cc(C(=O)N4CCCC4)n(Cc4ccc(OC(F)(F)F)cc4)c3C[C@H]2CN1C(=O)c1ccccc1	0.705
Cc1ccc(-c2cccc(=O)o2)cc1	5.3
COCCCNC(=O)[C@@H]1c2ccccc2C(=O)N(Cc2cc(F)cc(C(F)(F)F)c2)[C@H]1c1ccc(CO)cc1	0.154
C=C(/C(=C/C[C@@H](OC(=O)c1ccncc1)c1ccccc1OCCO)c1cnc2ccccc2c1)C(C)C	-3.75
COCCOC(=O)N1C(=O)[C@@]2(c3cc(C#CC4(O)CCCCCC4)ccc31)[C@H](C(=O)N1CCc3cc(OC)c(OC)cc3C1)[C@H]1C(=O)O[C@H](c3ccccc3)[C@H](c3ccccc3)N1[C@@H]2c1ccccc1OCCO	-0.165
Cc1ccc(F)cc1S(=O)(=O)N[C@@H]1CCN(C(=O)c2ccc(OC(C)C)cc2)C1	-3.78
COC(=O)[C@@]1(Cc2ccc(OC)cc2)[C@H]2c3cc(C(=O)N4CCCC4)n(Cc4ccc(C)o4)c3C[C@H]2CN1C(=O)c1ccccc1	8.22
C=C(CCCC)/C(=C/C[C@@H](OC(=O)c1ccncc1)c1ccccc1OCCO)c1cc(C(=O)OC)ccc1OC	0.488
COC(=O)[C@@]1(Cc2ccc(OC)cc2)[C@H]2c3cc(C(=O)N(C)C)n(CCF)c3C[C@H]2CN1C(=O)c1ccccc1	-1.11
COC(=O)[C@@]1(Cc2ccc(F)cc2)[C@H]2c3cc(C(=O)N4CCCC4)n(Cc4ccccc4)c3C[C@H]2CN1C(=O)c1ccccc1	1.2

----------
System: Human papillomavirus type 1a protein E7 (residues 44-93)
Experiment: small molecules binding HPV E7 44-93 – biochemical, small-molecule microarray, residues 44-93, 635 nm fluorescence, primary screen (AID 1108);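 note: E7 fragment applied at 1 µg/mL in TBST for 1 h at 4 C; score combines spot fluorescence with its signal to noise ratio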
Conditions: fluorescence 635 nm, higher = more signal
Output True for composite z-score not less than 1; output False otherwise.

> print(dat)
                               linenotation  group
1  COCCCNC(=O)[C@@H]1c2ccccc2C(=O)N(Cc2cc(F)cc(C(F)(F)F)c2)[C@H]1c1ccc(CO)cc1  False
2  COC(=O)c1c(CC[C@@H](CO)NC(=O)N[C@@H](C)Cn2cc(C3(O)CCCC3)nn2)oc(C(C)=O)c1C(=O)OC  False
3  COC(=O)[C@@]1(Cc2ccc(F)cc2)[C@H]2c3cc(C(=O)N4CCCC4)n(Cc4ccccc4)c3C[C@H]2CN1C(=O)c1ccccc1   True
4  [N-]=[N+]=Nc1ccccc1C[C@]1(C(=O)NCCN2CCOCC2)N=C(c2ccc(OCCCO)cc2)O[C@H]1c1ccccc1N=[N+]=[N-]   True
5  CCCN1C(=O)[C@@]2(Cc3ccccc3)N=C(c3ccc(OCCCO)cc3)O[C@H]2c2ccccc21   True
6  COc1ccc(C#Cc2ccc3c(c2)[C@]2(C(=O)N3)[C@H](C(=O)O)[C@H]3C(=O)O[C@H](c4ccccc4)[C@H](c4ccccc4)N3[C@@H]2c2ccc(OCCO)cc2)cc1  False
7  C=C(C(=O)CC[C@H](OC(=O)c1cccnc1)c1ccc(OCCO)cc1)C(C)C   True

----------
Target: E3 ubiquitin-protein ligase XIAP (Homo sapiens) (UniProt P98170)
Sequence (P98170 whole entry, looked up): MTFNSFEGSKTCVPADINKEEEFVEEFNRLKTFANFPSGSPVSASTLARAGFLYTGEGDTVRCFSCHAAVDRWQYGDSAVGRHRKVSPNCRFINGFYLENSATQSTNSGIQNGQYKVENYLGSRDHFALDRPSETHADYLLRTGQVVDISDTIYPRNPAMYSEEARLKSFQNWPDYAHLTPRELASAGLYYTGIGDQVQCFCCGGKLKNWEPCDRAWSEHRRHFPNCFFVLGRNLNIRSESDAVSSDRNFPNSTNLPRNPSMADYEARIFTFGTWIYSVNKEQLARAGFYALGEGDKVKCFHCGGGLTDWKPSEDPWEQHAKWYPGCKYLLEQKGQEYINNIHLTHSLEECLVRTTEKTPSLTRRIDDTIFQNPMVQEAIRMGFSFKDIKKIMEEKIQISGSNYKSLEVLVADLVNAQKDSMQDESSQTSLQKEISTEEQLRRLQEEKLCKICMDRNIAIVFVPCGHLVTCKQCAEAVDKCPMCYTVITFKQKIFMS
Test: small molecules binding XIAP protein – biophysical, small-molecule microarray, fluorescence 635 nm, primary screen (AID 1181);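 note: score merges 667 nm emission and signal to noise over triplicate slides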
Conditions: higher = more signal
Would you mind labelling by composite z-score? At or over 0.05 is met, under is not met.

molecule	tgt	group
COCCOC(=O)N1C(=O)[C@@]2(c3cc(C#CCNC(N)=O)ccc31)[C@H](C(=O)N1CCCCCCC1)[C@H]1C(=O)O[C@H](c3ccccc3)[C@H](c3ccccc3)N1[C@@H]2c1ccc(OCCO)cc1	E3 ubiquitin-protein ligase XIAP (Homo sapiens) (UniProt P98170)	not met
COc1cc(C(O)C2C=CC3C(=O)N(C)C(=O)C3N2NC(=O)OC(C)(C)C)cc(OC)c1OC (centres undefined)	E3 ubiquitin-protein ligase XIAP (Homo sapiens) (UniProt P98170)	met
CN1C(=O)C2C=CC(C(O)c3ccc(F)cc3)N(N3CCCCC3)C2C1=O (centres undefined)	E3 ubiquitin-protein ligase XIAP (Homo sapiens) (UniProt P98170)	not met
COC(=O)[C@@]1(Cc2ccc(OC)cc2)[C@H]2c3cc(C(=O)N(C)C)n(Cc4cc(F)c(F)c(F)c4)c3C[C@H]2CN1C(=O)c1ccccc1	E3 ubiquitin-protein ligase XIAP (Homo sapiens) (UniProt P98170)	met
COc1ccc(CCNC(=O)[C@@H]2c3ccccc3C(=O)N(Cc3ccccc3)[C@H]2c2ccc(CO)cc2)cc1	E3 ubiquitin-protein ligase XIAP (Homo sapiens) (UniProt P98170)	not met
O=[N+]([O-])c1ccc(C[n+]2ccc(-c3ccc(CO)cc3)cc2)o1	E3 ubiquitin-protein ligase XIAP (Homo sapiens) (UniProt P98170)	not met
NC(=O)NCC#Cc1ccc2c(c1)[C@]1(C(=O)N2)[C@H](c2ccc(O)cc2)N2[C@H](c3ccccc3)[C@H](c3ccccc3)OC(=O)[C@H]2[C@@H]1C(N)=O	E3 ubiquitin-protein ligase XIAP (Homo sapiens) (UniProt P98170)	met
C=CC[C@@]1(C(=O)NCC(O)CO)N=C(c2ccc(OCCCO)cc2)O[C@@H]1c1ccccc1 (some centres undefined)	E3 ubiquitin-protein ligase XIAP (Homo sapiens) (UniProt P98170)	not met
COCCOC(=O)N1C(=O)[C@@]2(c3cc(C#Cc4ccc(OC)cc4)ccc31)[C@H](C(N)=O)[C@H]1C(=O)O[C@H](c3ccccc3)[C@H](c3ccccc3)N1[C@@H]2c1ccc(OCCO)cc1	E3 ubiquitin-protein ligase XIAP (Homo sapiens) (UniProt P98170)	not met
C=C(CCCC)/C(=C/C[C@H](OC(=O)c1ccncc1)c1ccc(CO)o1)c1cc(C(=O)OC)ccc1OC	E3 ubiquitin-protein ligase XIAP (Homo sapiens) (UniProt P98170)	met
COc1ccccc1CN1C(=O)c2ccccc2[C@@H](C(=O)NCC(C)C)[C@@H]1c1ccc(CO)cc1	E3 ubiquitin-protein ligase XIAP (Homo sapiens) (UniProt P98170)	not met
COc1ccc([Si](C)(C)[C@H]2[C@H](CCO)O[C@@]3(C(=O)N(Cc4cccc(N5CCOC5=O)c4)c4ccccc43)[C@@H]2C)cc1	E3 ubiquitin-protein ligase XIAP (Homo sapiens) (UniProt P98170)	not met
C=CC[C@]1(C(=O)N(C)C)N=C(c2ccc(OCCCO)cc2)O[C@H]1c1ccccc1	E3 ubiquitin-protein ligase XIAP (Homo sapiens) (UniProt P98170)	met
O=C1O[C@H](c2ccccc2)[C@H](c2ccccc2)N2[C@H]1[C@@H](C(=O)NC[C@H](O)c1ccccc1)[C@]1(C(=O)Nc3ccccc31)[C@H]2c1ccccc1OCCO	E3 ubiquitin-protein ligase XIAP (Homo sapiens) (UniProt P98170)	met

----------
Listed next: entries and their corresponding z-score.
Assay: compound effects on hepatocellular carcinoma cell viability – HepG2, calcein-AM fluorescence, 48 h, basal, profiling panel (AID 1164); note: test concentration not given here
Conditions: higher = more signal
measurementName: z-score

> print(dat)
                                   compound   result
1  C=C(COC)C(=O)CC[C@H](OC(=O)c1ccccc1-c1ccccc1C(=O)O)c1ccc(OCCO)cc1   -0.626
2  CC1(C)[C@@H]2CC(C(O)C3C=CC4C(=O)N(c5ccccc5)C(=O)C4N3Nc3ccccc3F)=C[C@@H]1C2 (some centres undefined)  -0.0679
3  [N-]=[N+]=NCc1ccccc1C[C@@]1(C(=O)NCCN2CCOCC2)N=C(c2ccc(OCCCO)cc2)O[C@@H]1c1ccccc1CN=[N+]=[N-]   -0.399
4  CCCC[C@H]1OB(O)C[C@H]2C1=C(COc1ccccc1)Cn1c(=O)n(-c3ccccc3)c(=O)n12   -0.561

----------
Experiment: probe aXIP binding to arrayed compounds – biochemical, NeuroSMM set, 635/667 nm fluorescence, primary screen (AID 1119);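 note: probe is the protein aXip251-270 applied at 1 µg/mL to compound-printed slides; binding of probe to printed compounds measured as 667 nm fluorescence plus signal to noise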
Conditions: small-molecule microarray, higher = more signal, called active from +8 up or from −8 down
composite Z-score values, listed per item

lineNotation	composite Z-score
COCCOC(=O)N1C(=O)[C@@]2(c3cc(C#CC4(O)CCCCCC4)ccc31)[C@H](C(=O)N1CCc3cc(OC)c(OC)cc3C1)[C@H]1C(=O)O[C@H](c3ccccc3)[C@H](c3ccccc3)N1[C@@H]2c1ccccc1OCCO	0.141
COCCOC(=O)N1C(=O)[C@@]2(c3cc(C#CCCO)ccc31)[C@H](C(=O)N1CCc3cc(OC)c(OC)cc3C1)[C@H]1C(=O)O[C@H](c3ccccc3)[C@H](c3ccccc3)N1[C@@H]2c1ccc(OCCO)cc1	0.552
COC(=O)[C@@]1(Cc2ccccc2)[C@H]2c3cc(C(=O)N(C)C)n(Cc4ccccn4)c3C[C@H]2CN1C(=O)c1ccccc1	0.146
